Target: T1, FGFR2-IIIb (fibroblast growth factor receptor 2 IIIb splice form) (human, UniProt P21802 22-377)
T1 construct: also called FGFR2b; KGFR
T1 chain: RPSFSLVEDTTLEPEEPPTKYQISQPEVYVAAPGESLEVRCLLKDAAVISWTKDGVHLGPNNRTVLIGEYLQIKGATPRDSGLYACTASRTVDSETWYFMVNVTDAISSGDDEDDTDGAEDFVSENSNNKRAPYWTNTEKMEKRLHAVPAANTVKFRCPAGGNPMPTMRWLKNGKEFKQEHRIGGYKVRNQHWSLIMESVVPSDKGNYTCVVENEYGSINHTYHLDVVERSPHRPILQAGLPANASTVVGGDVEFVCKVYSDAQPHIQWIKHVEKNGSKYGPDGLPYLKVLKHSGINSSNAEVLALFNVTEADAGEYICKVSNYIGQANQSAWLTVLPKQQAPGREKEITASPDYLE
Experiment: blocking ELISA (potency), forced oxidation study
Hi there, I'd appreciate the recorded % Potency (Assay 1), against Reference for every entry that follows.
Numbers only, in %.

{"columns": ["binder", "% Potency (Assay 1), against Reference, %"],
 "data": [
  ["anti-FGFR2-IIIb antibody incubated with 0.01% hydrogen peroxide overnight at room temperature (force oxidized) (antibody, human IgG1, kappa, V domains shown, Same antibody as m1 after peroxide treatment; also called +0.01% H2O2; 0.01% H2O2) VH: QVQLVQSGAEVKKPGSSVKVSCKASGYIFTTYNVHWVRQAPGQGLEWIGSIYPDNGDTSYNQNFKGRATITADKSTSTAYMELSSLRSEDTAVYYCARGDFAYWGQGTLVTVSS VL: DIQMTQSPSSLSASVGDRVTITCKASQGVSNDVAWYQQKPGKAPKLLIYSASYRYTGVPSRFSGSGSGTDFTFTISSLQPEDIATYYCQQHSTTPYTFGQGTKLEIKR", 98],
  ["anti-FGFR2-IIIb antibody incubated with 0.1% hydrogen peroxide overnight at room temperature (force oxidized) (antibody, human IgG1, kappa, V domains shown, Same antibody as m1 after peroxide treatment; also called +0.1% H2O2; 0.1% H2O2) VH: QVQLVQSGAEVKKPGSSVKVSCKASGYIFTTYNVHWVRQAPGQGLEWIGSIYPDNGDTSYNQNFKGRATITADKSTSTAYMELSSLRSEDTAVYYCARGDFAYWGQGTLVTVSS VL: DIQMTQSPSSLSASVGDRVTITCKASQGVSNDVAWYQQKPGKAPKLLIYSASYRYTGVPSRFSGSGSGTDFTFTISSLQPEDIATYYCQQHSTTPYTFGQGTKLEIKR", 78],
  ["anti-FGFR2-IIIb antibody incubated with 1.0% hydrogen peroxide overnight at room temperature (force oxidized) (antibody, human IgG1, kappa, V domains shown, Same antibody as m1 after peroxide treatment; also called +1.0% H2O2; 1.0% H2O2) VH: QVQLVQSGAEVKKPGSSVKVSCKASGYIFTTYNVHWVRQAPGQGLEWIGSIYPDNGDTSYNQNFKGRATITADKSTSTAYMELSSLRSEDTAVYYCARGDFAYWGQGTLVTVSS VL: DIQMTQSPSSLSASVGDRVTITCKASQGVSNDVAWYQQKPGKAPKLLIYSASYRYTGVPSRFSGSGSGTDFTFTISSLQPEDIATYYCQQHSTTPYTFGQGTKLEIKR", 73]
]}

The record that follows has no % Potency (Assay 1), against Reference shown yet.
Q: State its % Potency (Assay 1), against Reference for this binder: anti-FGFR2-IIIb antibody (afucosylated, humanized IgG1 monoclonal antibody), control sample incubated without hydrogen peroxide (antibody, V domains shown, also called αFGFR2b; Sample 1) VH: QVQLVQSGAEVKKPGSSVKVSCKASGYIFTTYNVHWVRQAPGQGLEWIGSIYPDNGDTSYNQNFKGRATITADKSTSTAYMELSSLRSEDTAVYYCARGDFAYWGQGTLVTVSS VL: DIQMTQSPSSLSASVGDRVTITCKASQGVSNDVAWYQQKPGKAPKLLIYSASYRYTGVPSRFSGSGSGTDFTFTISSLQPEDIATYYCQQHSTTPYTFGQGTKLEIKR
Ans: 79

The reported measurements were obtained from patent US20220010020A1.
